Where these numbers come from: ChEMBL document CHEMBL1149184

System: Muscarinic acetylcholine receptor M2 (Cavia porcellus)
Assay: Palpha towards Muscarinic acetylcholine receptor M2 in guinea pig using [3H]NMS as a radioligand
observedProperty: Palpha

In [3]: df
Out[3]:
                                 chemsmiles  measuredresult
0       CCC[N+](C)(C)CCCN1C(=O)c2ccccc2C1=O           -0.78
1         C[N+](C)(C)CCCN1C(=O)c2ccccc2C1=O           -1.21
2    CCCCCC[N+](C)(C)CCCN1C(=O)c2ccccc2C1=O           -1.55
3  C[N+](C)(CCCCCC[N+](C)(C)CCCN1C(=O)c2ccccc2C1=O)CCCN1C(=O)CCC1=O           -0.49
4        CC[N+](C)(C)CCCN1C(=O)c2ccccc2C1=O           -1.03

###

Molecular target: Muscarinic acetylcholine receptor M2 (Sus scrofa)
Experiment: Half-maximal reduction towards Muscarinic acetylcholine receptor M2 in porcine heart using [3H]NMS as a radioligand
observedProperty: pEC0.5,diss

                                   compound  measuredresult
0  CCCN(CCCN1C(=O)c2ccccc2C1=O)CC1CCCCN1CCNC(=O)N1c2ccccc2C(=O)Nc2cccnc21 (stereo not given)            6.87
1  CCCN(CCC)CC1CCCCN1CCNC(=O)N1c2ccccc2C(=O)Nc2cccnc21 (stereo not given)            4.65
2  CCCN(CCCCCC[N+](C)(C)CCCN1C(=O)c2ccccc2C1=O)CC1CCCCN1CCNC(=O)N1c2ccccc2C(=O)Nc2cccnc21 (stereo not given)            6.78
3  CCCN(CCCN1C(=O)CCC1=O)CC1CCCCN1CCNC(=O)N1c2ccccc2C(=O)Nc2cccnc21 (stereo not given)            4.95
4  CCCN(CCCCCCN1C(=O)c2ccccc2C1=O)CC1CCCCN1CCNC(=O)N1c2ccccc2C(=O)Nc2cccnc21 (stereo not given)            6.75

###

Tested on: Muscarinic acetylcholine receptor M2 (Cavia porcellus)
Experiment: Half-maximally reduction towards muscarinic 2 receptor in guinea pig using [3H]-AF-DX 384 as a radioligand
Recorded pEC0.5,diss for the following compounds
observedProperty: pEC0.5,diss

In [3]: df
Out[3]:
                                 chemsmiles  measuredresult
0        CC[N+](C)(C)CCCN1C(=O)c2ccccc2C1=O            3.33
1       CCC[N+](C)(C)CCCN1C(=O)c2ccccc2C1=O            2.98
2         C[N+](C)(C)CCCN1C(=O)c2ccccc2C1=O               3
3  C[N+](C)(CCCCCC[N+](C)(C)CCCN1C(=O)c2ccccc2C1=O)CCCN1C(=O)CCC1=O            3.67
4    CCCCCC[N+](C)(C)CCCN1C(=O)c2ccccc2C1=O            4.11

###

Biological target: Muscarinic acetylcholine receptor M2 (Sus scrofa) (UniProt P06199)
Sequence (P06199 whole entry): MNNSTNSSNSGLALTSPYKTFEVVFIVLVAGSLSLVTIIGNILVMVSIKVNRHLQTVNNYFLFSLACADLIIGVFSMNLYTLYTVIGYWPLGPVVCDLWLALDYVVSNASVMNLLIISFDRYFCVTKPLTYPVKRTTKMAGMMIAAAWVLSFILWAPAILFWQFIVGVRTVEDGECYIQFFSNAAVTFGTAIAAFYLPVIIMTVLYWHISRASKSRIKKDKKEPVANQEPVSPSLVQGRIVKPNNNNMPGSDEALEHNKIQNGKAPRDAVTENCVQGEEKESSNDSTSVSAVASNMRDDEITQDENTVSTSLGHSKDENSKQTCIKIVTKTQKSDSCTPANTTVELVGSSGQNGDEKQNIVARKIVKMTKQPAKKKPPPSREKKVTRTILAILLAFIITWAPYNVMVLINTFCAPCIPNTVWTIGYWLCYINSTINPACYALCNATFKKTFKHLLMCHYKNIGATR
Assay: Emax dissociation towards Muscarinic acetylcholine receptor M2 in porcine heart using [3H]NMS as a radioligand
Each entry below carries its reported Emax,diss.
observedProperty: Emax,diss (%)

                                   compound  observedproperty  measuredresult
0  CCCN(CCCCCCN1C(=O)c2ccccc2C1=O)CC1CCCCN1CCNC(=O)N1c2ccccc2C(=O)Nc2cccnc21 (stereo not given)         Emax,diss             100
1  CCCN(CCCCCC[N+](C)(C)CCCN1C(=O)c2ccccc2C1=O)CC1CCCCN1CCNC(=O)N1c2ccccc2C(=O)Nc2cccnc21 (stereo not given)         Emax,diss             100
2  CCCN(CCCN1C(=O)CCC1=O)CC1CCCCN1CCNC(=O)N1c2ccccc2C(=O)Nc2cccnc21 (stereo not given)         Emax,diss              76
3  CCCN(CCCN1C(=O)c2ccccc2C1=O)CC1CCCCN1CCNC(=O)N1c2ccccc2C(=O)Nc2cccnc21 (stereo not given)         Emax,diss             100
4  CCCN(CCC)CC1CCCCN1CCNC(=O)N1c2ccccc2C(=O)Nc2cccnc21 (stereo not given)         Emax,diss             100
